- Assay overview: refractive index (Na D-line) (dimensionless)
- Experimental conditions: 288.15 K; 101.33 kPa; Liquid; Standard Abbe refractometry
Measure name: refractive index

>>> print(df.to_string())
                               compound      measure_name  reported_measurement
0  CC(=O)N(C)C [N,N-dimethylethanamide]  refractive index                1.4382
1               ClCCl [dichloromethane]  refractive index                1.4276
2          CN(C)C=O [dimethylformamide]  refractive index                 1.431
3     C[S+](C)[O-] [dimethyl sulfoxide]  refractive index                1.4793
4          ClC(Cl)Cl [trichloromethane]  refractive index                1.4471

---

- Experimental conditions: 288.15 K; 101.33 kPa; Liquid
Measure name: mass density (kg/m3)

I = CN(C)C=O [dimethylformamide]
II = ClC(Cl)Cl
Input: For I and II , which recorded mass density is lower? State your choice using its label.
Output: I

---

- Assay overview: refractive index (Na D-line) (dimensionless)
- Experimental conditions: 298.15 K; 101.33 kPa; Liquid; Standard Abbe refractometry
Measure name: refractive index

>>> print(df.to_string())
                               molecule      measure_name  reported_measurement
0          CN(C)C=O [dimethylformamide]  refractive index                1.4276
1                                 ClCCl  refractive index                1.4219
2  CC(=O)N(C)C [N,N-dimethylethanamide]  refractive index                1.4346
3                             ClC(Cl)Cl  refractive index                 1.442
4     C[S+](C)[O-] [dimethyl sulfoxide]  refractive index                1.4752

---

- Experimental conditions: 298.15 K; 101.33 kPa; Liquid
Measure name: mass density (kg/m3)

Sample answers from the record:
                               compound  scale_unit  reported_measurement
0               ClCCl [dichloromethane]       kg/m3               1316.27
1     C[S+](C)[O-] [dimethyl sulfoxide]       kg/m3               1095.29
2  CC(=O)N(C)C [N,N-dimethylethanamide]       kg/m3                936.28

a = CN(C)C=O [dimethylformamide]
b = ClC(Cl)Cl [trichloromethane]
Input: For a and b , which recorded mass density is lower? State your choice using its label.
Output: a
(a: 944.06 kg/m3, b: 1468.28 kg/m3)

---

- Experimental conditions: 288.15 K; 101.33 kPa; Liquid
Measure name: mass density (kg/m3)

>>> print(df.to_string())
                               molecule  measure_name  scale_unit  reported_measurement
0               ClCCl [dichloromethane]  mass density       kg/m3               1334.57
1     C[S+](C)[O-] [dimethyl sulfoxide]  mass density       kg/m3                1105.3
2  CC(=O)N(C)C [N,N-dimethylethanamide]  mass density       kg/m3                 945.5
